Test system: HepG2
test.description: cytotoxicity call (relative viability < 0.9)
assay.setup: 10 µM
Among all 39,000 compounds or so, about 3,300 (8.5%) were called active. The list comes from a sample in which actives are over-represented; it also holds close analogues and randomly drawn compounds.

{"columns": ["structure", "cytotoxicity call"],
 "data": [
  ["C[C@@H]1CCCCO[C@H](CN(C)Cc2ccc(Cl)c(Cl)c2)[C@H](C)CN([C@@H](C)CO)C(=O)c2cc(NC(=O)Nc3ccc(F)cc3)ccc2O1", "inactive"],
  ["CO[C@H]1CN(C)C(=O)c2cc(NS(C)(=O)=O)ccc2OC[C@@H](C)N(C(=O)C2CCOCC2)C[C@H]1C", "inactive"],
  ["C[C@@H]1CCCCO[C@@H](CN(C)Cc2ccc(Cl)c(Cl)c2)[C@@H](C)CN([C@H](C)CO)C(=O)c2cc(NC(=O)Nc3ccc(F)cc3)ccc2O1", "inactive"],
  ["O=C(Nc1cccc2cccnc12)[C@@H]1[C@H](c2ccc(C(F)(F)F)cc2)CC(=O)N1C(=O)OCc1ccccc1", "inactive"],
  ["C[C@@H]1CCCCO[C@@H](CN(C)Cc2ccc(Cl)c(Cl)c2)[C@H](C)CN([C@H](C)CO)C(=O)c2cc(NC(=O)Nc3ccc(F)cc3)ccc2O1", "inactive"],
  ["C[C@@H]1CN([C@H](C)CO)C(=O)c2cc(NC(=O)c3ccccc3)ccc2O[C@@H](C)CCCCO[C@@H]1CN(C)CC1CCCCC1", "inactive"],
  ["C/C=C/C(=O)N1CCC=CC1=O", "inactive"],
  ["CCC(=O)N(C)C[C@H]1Oc2ncc(C#C[C@H](C)O)cc2C(=O)N([C@H](C)CO)C[C@H]1C", "inactive"],
  ["C[C@H]1CCCCO[C@H](CN(C)Cc2ccc(Cl)c(Cl)c2)[C@@H](C)CN([C@@H](C)CO)C(=O)c2cc(NC(=O)Nc3ccc(F)cc3)ccc2O1", "active"],
  ["C[C@H]1CN([C@@H](C)CO)C(=O)Cc2cc(NS(=O)(=O)c3cn(C)cn3)ccc2O[C@H]1CN(C)C", "inactive"],
  ["COc1cc(/C=C/C(=O)N(C)CCN(C)C(=O)/C=C/c2cc(OC)c(OC)c(OC)c2)cc(OC)c1OC", "inactive"],
  ["C[C@H]1CCCCO[C@@H](CN(C)C(=O)Nc2ccc3c(c2)OCO3)[C@@H](C)CN([C@@H](C)CO)C(=O)c2cc(NS(=O)(=O)c3ccc(F)cc3)ccc2O1", "inactive"],
  ["C[C@@H]1CCCCO[C@@H](CN(C)CC2CCCCC2)[C@@H](C)CN([C@H](C)CO)C(=O)c2cc(NC(=O)c3ccccc3)ccc2O1", "active"],
  ["COc1cc(C=CC(N)=O)cc(OC)c1OC", "active"],
  ["C=C(C)C(=O)N1CCC=CC1=O", "inactive"],
  ["COc1cc(/C=C/C(=O)N2CCC=CC2=O)cc(OC)c1OCCOCCOCCOCCC(=O)OC(C)(C)C", "active"],
  ["CN1C(=O)[C@@H]2CN(c3ncccn3)C[C@@H]2C12CCN(S(C)(=O)=O)CC2", "inactive"],
  ["COC(=O)C=Cc1cc(OC)c(OC)c(OC)c1", "inactive"],
  ["COc1cc(/C=C/C(=O)N2CCC=CC2=O)cc(OC)c1OC(=O)CCCCCCCCCCC(=O)Oc1c(OC)cc(/C=C/C(=O)N2CCC=CC2=O)cc1OC", "inactive"],
  ["C[C@H]1CN([C@@H](C)CO)C(=O)Cc2cc(NS(C)(=O)=O)ccc2O[C@H]1CN(C)C", "inactive"],
  ["CC(C)NC(=O)N(C)C[C@@H]1Oc2c(NS(=O)(=O)c3cn(C)cn3)cccc2C(=O)N([C@H](C)CO)C[C@H]1C", "inactive"],
  ["C[C@H]1CN([C@@H](C)CO)C(=O)c2cccc(NC(=O)Nc3cccc4ccccc34)c2O[C@H]1CN(C)Cc1ccc2c(c1)OCO2", "inactive"]
]}
